Molecular target: EBNApMHC (HLA-A*0201:EBNA-1), biotinylated recombinant complex (human; Epstein Barr virus)
Assay: ribosome display selection, crude extract HTRF
measured endpoint: binding result

The examples below pair each entry with its known result.
Data request, read-out binding result, for SEQ ID NO 110 (designed binder) GSDLGKKLLQAARAGQLDEVRELLKAGADVNAKDAAGWTPLHLAAAEGHLEIVEVLLKAGADVNAKDVVGQTPLHVAAVIGHLEIVEVLLKAGADVNAKDSAGYTPLHLAAREGHLEIVEVLLKAGADVNAQDKSGKTPADLAARAGHQDIAEVLQKAA
binds

Data request, read-out binding result, for SEQ ID NO 107 (designed binder) GSDLGKKLLQAARAGQLDEVRELLKAGADVNAKDLTGITPLHVAARSGHPEIVEVLLKAGADVNAKDAWGFTPLHVAAYKGHLEIVEVLLKAGADVNAKDQLGETPLHLAAAEGHLEIVEVLLKAGADVNAQDKSGKTPADLAARAGHQDIAEVLQKAA
binds

Data request, read-out binding result, for SEQ ID NO 102 (designed binder) GSDLGHKLLIAAYLGQDDEVRILLAAGADVNAKDDFGITPLHVAAQVGHLEIVEVLLKAGADVNAKDKSGLTPLHLAAYYGHLEIVEDLLKAGADVNAQDYSGETPADLAASLGHEDIAEVLQKAA
binds

Data request, read-out binding result, for SEQ ID NO 99 (designed binder) GSDLGAKLLFAAILGQDDEVRILLAAGADVNAKDETGHTPLHHAAHYGHLEIVEVLLKAGADVNAKDQYGFTPLHLAAYYGHLEIVEVLLKAGADVNAQDDDGITPADLAAAHGHEDIAEVLQKAA
binds

Data request, read-out binding result, for SEQ ID NO 105 (designed binder) GSDLGKKLLQAARAGQLDEVRELLKAGADVNAKDQEGRTPLHIAAAHGHLEIVEVLLKAGADVNAKDAYGYTPLHLAAFIGHLEIVEVLLKAGAEVNAKDKYGETPLHIAALTGHLEIVEVLLKAGADVNAQDKSGKTPADLAARAGHQDIAEVLQKAA
binds

Data request, read-out binding result, for SEQ ID NO 109 (designed binder) GSDLGKKLLQAARAGQLDEVRELLKAGADVNAKDLSGVTPLHIAARSGHLEIVEVLLKAGADVNAKDAWGYTPLHVAAEHGHLEIVEVLLKAGADVNAKDHLGSTPLHIAASHGHLEIVEVLLKAGADVNAQDKSGKTPADLAARAGHQDIAEVLQKAA
binds

---
Data request, read-out binding result, for SEQ ID NO 94 (designed binder) GSDLGQKLLEAARKGQDDEVRELLKAGADVNAKDKAGWTPLHLAAYFGHLEIVEVLLKAGADVNAKDVIGWTPLHLAAWQGHLEIVEVLLKAGADVNAQDLKGQTPADLAAQEGNEDIAEVLQKAA
binds

Values from patent US20230243070A1
